- experimental-target: the molecule itself
- method-summary: SEC; high-performance size-exclusion chromatography (HPSEC) of the purified recombinant proteins; fractions of monomers, dimers, tri-/tetramers and high MW aggregates; details in the online Supporting Information
Answer each item with its documented percent monomers.

Name the reported percent monomers value associated with the protein Cor a 1 C4,82,160S, L115K (natural protein) GVFSYEDEATSVIPPARLFKSFVLDADNLIPKVAPQHFTSAENLEGNGGPGTIKKITFAEGNEFKYMKHKVEEIDHANFKYSYSIIEGGPLGHTLEKISYEIKMAAAPHGGGSIKKITSKYHTKGNASINEEEIKAGKEKAAGLFKAVEAYLLAHPDAYS
> 99%

Name the reported percent monomers value associated with the protein Mal d 1 C107S, I113K (natural protein) GVYTFENEFTSEIPPSRLFKAFVLDADNLIPKIAPQAIKQAEILEGNGGPGTIKKITFGEGSQYGYVKHRIDSIDEASYSYSYTLIEGDALTDTIEKISYETKLVASGSGSTKKSISHYHTKGNIEIKEEHVKAGKEKAHGLFKLIESYLKDHPDAYN
> 99%

Name the reported percent monomers value associated with the protein Mal d 1 C107S (natural protein) GVYTFENEFTSEIPPSRLFKAFVLDADNLIPKIAPQAIKQAEILEGNGGPGTIKKITFGEGSQYGYVKHRIDSIDEASYSYSYTLIEGDALTDTIEKISYETKLVASGSGSTIKSISHYHTKGNIEIKEEHVKAGKEKAHGLFKLIESYLKDHPDAYN
> 98%

Name the reported percent monomers value associated with the protein Cor a 1 C4,82,160S (natural protein) GVFSYEDEATSVIPPARLFKSFVLDADNLIPKVAPQHFTSAENLEGNGGPGTIKKITFAEGNEFKYMKHKVEEIDHANFKYSYSIIEGGPLGHTLEKISYEIKMAAAPHGGGSILKITSKYHTKGNASINEEEIKAGKEKAAGLFKAVEAYLLAHPDAYS
93%
